assayed.target: T1, SHP2_(2SH2) (UniProt Q06124 1-221)
T1 sequence (looked up): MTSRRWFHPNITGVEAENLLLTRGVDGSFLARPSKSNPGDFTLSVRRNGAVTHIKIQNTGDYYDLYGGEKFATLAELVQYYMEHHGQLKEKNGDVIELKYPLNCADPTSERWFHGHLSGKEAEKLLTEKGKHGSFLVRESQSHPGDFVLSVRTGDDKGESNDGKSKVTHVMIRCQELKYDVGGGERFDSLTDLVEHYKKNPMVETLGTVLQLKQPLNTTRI
protocol.description: ITC
property.measured: Kd

What Kd value was documented for this binder, pFGFR2C58 (domain or fragment, UniProt P21802 764-821, looked up, tyrosine phosphorylated in vitro (sites not printed for the preparation)) TTNEEYLDLSQPLEQYSPSYPDTRSSCSSGDDSVFSPDPMPYEPCLPQYPHINGSVKT ?
~8 µM
